# Percent Effect per entry
tested on: Plasmodium falciparum; assay: Plasmodium falciparum sporozoite viability assay; type: functional, organism-based; further: in the data most compounds retested in dose-response had high values
In all, about 34,000 compounds went through this assay and about 290 (0.85%) showed an effect of 50% or more. This excerpt belongs to a sample that is enriched for strong results.

Before answering, review these 6 worked examples.
| Compound | Percent Effect |
| --- | --- |
| O=C(O)C(F)(F)F.O=C(O)C(F)(F)F.c1cncc(OC[C@@]23CCC[C@@H]2CN(C2CCOCC2)C3)c1 | 9.846% |
| CCS(=O)(=O)N1CCN(CC2CC2)c2ncccc2C1 | 11.27% |
| O=C(Cc1ccccn1)N1CCN2C[C@H](OCCN3CCCC3)C[C@H]2C1.O=C(O)C(F)(F)F.O=C(O)C(F)(F)F.O=C(O)C(F)(F)F | -8.505% |
| O=C(O)C(F)(F)F.O=C(O)C(F)(F)F.c1cncc(N2CCOCC3(CN(Cc4cccs4)CCO3)C2)c1 (configuration not stated) | 7.302% |
| O=C(O)C(F)(F)F.O=C(O)C(F)(F)F.O=S(=O)(C1CC1)N1CCC2(CC1)CN(Cc1ccccn1)CCO2 | 0.5199% |
| COCCN1CCOCC12CCN(C(=O)c1ccncc1)CC2.O=C(O)C(F)(F)F | -4.875% |

Could you now look at the following compound, please?
Output Percent Effect of CCc1nc(CNC(C)Cn2cccn2)cs1 (configuration not stated) 4.8%
